Target: Signal transducer and activator of transcription 3 (Homo sapiens)
Sequence (P40763 whole entry): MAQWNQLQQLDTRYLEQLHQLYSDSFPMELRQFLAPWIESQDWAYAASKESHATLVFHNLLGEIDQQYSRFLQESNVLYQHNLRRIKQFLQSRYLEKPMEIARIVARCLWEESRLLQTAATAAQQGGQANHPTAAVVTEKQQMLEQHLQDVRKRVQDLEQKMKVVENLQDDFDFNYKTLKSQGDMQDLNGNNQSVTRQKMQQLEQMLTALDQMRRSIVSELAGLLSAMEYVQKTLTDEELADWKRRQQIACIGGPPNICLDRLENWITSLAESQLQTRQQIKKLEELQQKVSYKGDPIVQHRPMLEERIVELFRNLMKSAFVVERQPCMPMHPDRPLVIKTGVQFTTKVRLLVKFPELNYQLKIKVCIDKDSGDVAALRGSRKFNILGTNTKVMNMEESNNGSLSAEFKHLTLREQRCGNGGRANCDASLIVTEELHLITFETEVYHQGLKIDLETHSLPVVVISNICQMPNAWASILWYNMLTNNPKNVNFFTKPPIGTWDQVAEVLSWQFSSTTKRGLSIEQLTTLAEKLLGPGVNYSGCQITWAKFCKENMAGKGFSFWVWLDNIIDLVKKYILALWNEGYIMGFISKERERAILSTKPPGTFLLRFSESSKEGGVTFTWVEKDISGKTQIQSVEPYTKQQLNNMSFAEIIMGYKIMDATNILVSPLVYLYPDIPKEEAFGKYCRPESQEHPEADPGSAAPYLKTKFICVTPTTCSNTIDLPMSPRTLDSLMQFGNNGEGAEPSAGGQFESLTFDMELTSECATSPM
Assay: EMSA Based Assay: A screening process evaluated in vitro disruption of STAT3(dimer)-DNA formation through a previously published EMSA based assays, giving a valuable insight into the inhibitor's mode of action against the STAT3 homo-dimer.
Lab note - cut at 200 µM for IC50: met if strictly below, not met if not.

Examples with answers:
chemicalsmiles=CCCCCCNC(=O)c1nc(-c2ccccc2)oc1Cc1ccc(OP(=O)(O)O)cc1 answerlabel="not met"
chemicalsmiles=O=C(Nc1ccc(C2CCCCC2)cc1)c1nc(-c2ccccc2)sc1Cc1ccc(OP(=O)(O)O)cc1 answerlabel="not met"
chemicalsmiles=CCCCCCNC(=O)c1nc(-c2cccc3ccccc23)sc1Cc1ccc(OP(=O)(O)O)cc1 answerlabel=met

Confirm or reject: IC50 of `O=C(Nc1ccc(C2CCCCC2)cc1)c1nc(-c2cccc3ccccc23)oc1Cc1ccc(OP(=O)(O)O)cc1` lies strictly below 200 µM
not met

Confirm or reject: IC50 of `O=C(O)c1nc(-c2ccccc2)oc1Cc1ccc(OP(=O)(O)O)cc1` lies strictly below 200 µM
not met

Confirm or reject: IC50 of `CCCCCCNC(=O)c1nc(-c2ccccc2)sc1Cc1ccc(OP(=O)(O)O)cc1` lies strictly below 200 µM
met

Confirm or reject: IC50 of `O=C(Nc1ccc(C2CCCCC2)cc1)c1nc(-c2cccc3ccccc23)sc1Cc1ccc(OP(=O)(O)O)cc1` lies strictly below 200 µM
not met

Confirm or reject: IC50 of `O=C(Nc1ccc(C2CCCCC2)cc1)c1nc(-c2ccccc2)oc1Cc1ccc(O)cc1` lies strictly below 200 µM
not met

Confirm or reject: IC50 of `CCCCCCNC(=O)c1nc(-c2cccc3ccccc23)oc1Cc1ccc(OP(=O)(O)O)cc1` lies strictly below 200 µM
met

Confirm or reject: IC50 of `O=C(Nc1ccc(C2CCCCC2)cc1)c1nc(-c2ccccc2)oc1Cc1ccc(OP(=O)(O)O)cc1` lies strictly below 200 µM
met

Every entry's value here was drawn from ChEMBL document CHEMBL3638769.
